# System: LXR
# Construct: fused on or other part: GST fused to the LBD in the FRET assay
# Test: Measured EC50 or IC50 for LXR (LXRα and/or LXRβ; assay and subtype not given)
# Test settings: IC50 or EC50 class, subtype not specified
# Description: Measured EC50 or IC50 for LXR, and FXR for Compounds of the Invention LXR and FXR activities for various compounds of the invention are presented in the following table; those compounds with EC50 or IC50 values <10 μM for at least one of LXRα, LXRβ or FXR are considered to be active. In the following Table, IC50 or EC50 data is represented as follows: A<1 μM, B=1-10 μm, and C>10 μM.
pEC50: −log10 of the molar value.
Measurement name: pEC50

## Input Find the recorded pEC50 belonging to CS(=O)(=O)c1cccc(-c2ccc(-n3cc(-c4cnco4)nc3-c3ccccc3Cl)c(Cl)c2)c1 and report it.
## Output > 6.00

## Input Moving on to the next compound: CS(=O)(=O)c1cccc(-c2ccc(-n3cc(N4CCC4)nc3-c3ccccc3C(F)(F)F)cc2)c1
## Output > 6.00

## Input Next compound up: Cc1cscc1-c1cn(-c2ccc(-c3cccc(S(C)(=O)=O)c3)cc2)c(-c2ccccc2C(F)(F)F)n1
## Output 5.00 to 6.00

## Input Now the compound Cc1coc(-c2cn(-c3ccc(-c4cccc(S(C)(=O)=O)c4)cc3)c(-c3ccccc3C(F)(F)F)n2)n1
## Output > 6.00

## Input And for CC(=O)N1CCC[C@@H]1c1cn(-c2ccc(-c3cccc(S(C)(=O)=O)c3)cc2)c(-c2ccccc2C(F)(F)F)n1 ?
## Output < 5.00

## Input Quick one: Cc1cc(-n2nc(C(C)(C)O)cc2-c2c(Cl)cccc2Cl)ccc1-c1cccc(S(C)(=O)=O)c1
## Output 5.00 to 6.00

## Input # repeat for Cc1csc(-c2cn(-c3ccc(-c4cccc(S(C)(=O)=O)c4)cc3)c(-c3c(Cl)cccc3Cl)n2)n1
## Output > 6.00

## Input Quick one: Cc1nnc(-c2cn(-c3ccc(-c4cccc(S(C)(=O)=O)c4)cc3)c(-c3ccccc3C(F)(F)F)n2)o1
## Output > 6.00

## Input Similarly, CS(=O)(=O)c1cccc(-c2ccc(OCc3cc(C(F)(F)F)nn3-c3ccccc3Cl)cc2Cl)c1 ?
## Output > 6.00

## Input Could you do the same for Cc1cc(-n2nc(C(C)(C)O)c(Cl)c2-c2c(Cl)cccc2Cl)ccc1-c1cccc(S(C)(=O)=O)c1 , please?
## Output 5.00 to 6.00

## Input And the next one, CC(C)(O)c1cc(-c2ccc(-c3cccc(S(C)(=O)=O)c3)s2)n(-c2c(Cl)cccc2Cl)n1 ?
## Output > 6.00

## Input Next record, please: CS(=O)(=O)c1cccc(-c2ccc(-n3cc(-c4ccoc4)nc3-c3ccccc3C(F)(F)F)cc2)c1
## Output > 6.00

## Input Item: O=C(NCc1cccc(C(F)(F)F)c1)c1cc(C(F)(F)F)nn1-c1ccccc1Cl
## Output < 5.00

## Input Could you do the same for CN1CCCC1c1cn(-c2ccc(-c3cccc(S(C)(=O)=O)c3)cc2)c(C(C)(C)c2ccccc2Cl)n1 (centres unmarked) , please?
## Output 5.00 to 6.00

## Input Would you mind doing CS(=O)(=O)c1cccc(-c2ccc(-n3cc(-c4ncco4)nc3-c3ccccc3C(F)(F)F)cc2)c1 as well?
## Output < 5.00

## Input Note, next up: CC(C)(O)c1nn(-c2c(Cl)cccc2Cl)c(-c2ccc(-c3cccc(S(C)(=O)=O)c3)cc2)c1Cl
## Output > 6.00

## Input Moving on to the next compound: CS(=O)(=O)c1cccc(-c2ccc(-n3cc(C4=NCCO4)nc3-c3c(Cl)cccc3Cl)c(Cl)c2)c1
## Output > 6.00

## Input Proceed to CC(C)Oc1ccccc1-n1nc(C(F)(F)F)cc1C(=O)NCc1cccc(C(F)(F)F)c1
## Output < 5.00

## Input Entry CC1(C)COC(c2cn(-c3ccc(-c4cccc(S(C)(=O)=O)c4)cc3)c(-c3c(Cl)cccc3Cl)n2)=N1 please
## Output > 6.00

## Input Repeat for the following compound: O=C(O)c1ccc(-c2ccc(OCc3cc(C(F)(F)F)nn3-c3c(Cl)cccc3Cl)cc2)cc1
## Output < 5.00

## Input Also CS(=O)(=O)c1cccc(CNC(=O)c2cc(C(F)(F)F)nn2-c2ccccc2Cl)c1 , if possible.
## Output < 5.00

## Input What about CS(=O)(=O)c1cccc(-c2ccc(-n3cc(-c4cc(C(F)(F)F)on4)nc3-c3ccccc3Cl)c(Cl)c2)c1 ?
## Output 5.00 to 6.00

## Input Now consider O=C(O)Cc1ccc(-c2ccc(OCc3cc(C(F)(F)F)nn3-c3ccccc3Cl)cc2)cc1 and answer again.
## Output < 5.00

## Input Same thing, different compound: O=C(NCc1cccc(C(F)(F)F)c1)c1cc(C(F)(F)F)nn1-c1cc(Cl)ccc1Cl
## Output < 5.00

## Input Query Cc1cc(-n2nc(C(C)(C)O)cc2-c2c(F)cccc2Cl)ccc1-c1cccc(S(C)(=O)=O)c1 next
## Output 5.00 to 6.00

## Input Param item: CC(C)(O)c1cc(-c2c(Cl)cccc2Cl)n(-c2ccc(-c3cccc(S(C)(=O)=O)c3)cc2Cl)n1
## Output > 6.00

## Input Now try FC(F)(F)c1cc(COc2ccc(-n3cccc3)cc2)n(-c2ccccc2Cl)n1 .
## Output > 6.00

## Input Next record, please: CS(=O)(=O)c1cccc(-c2ccc(OCc3cc(C(F)(F)F)nn3-c3ccccc3Cl)c(Cl)c2)c1
## Output 5.00 to 6.00

## Input Moving on to Cc1cc(-c2cccc(S(C)(=O)=O)c2)ccc1-n1nc(C(C)(C)O)c(Cl)c1-c1c(Cl)cccc1Cl
## Output > 6.00

###

# Tested on: LXR
# Construct: fused on or other part: GST fused to the LBD in the FRET assay
# Test: Measured EC50 or IC50 for LXR (LXRα and/or LXRβ; assay and subtype not given)
# Test settings: IC50 or EC50 class, subtype not specified
pEC50: −log10 of the molar value.
Measurement name: pEC50

## Input Which value of pEC50 has been reported for O=C(O)c1ccc(-c2ccc(OCc3cc(C(F)(F)F)nn3-c3c(Cl)cccc3Cl)cc2)c(Cl)c1 [Example 946] in the records?
## Output > 6.00

## Input What do you have for CS(=O)(=O)c1cccc(-c2ccc(-n3cc(-c4ccsc4)nc3-c3ccccc3Cl)c(Cl)c2)c1 [Example 997] ?
## Output > 6.00

## Input Input Cc1cc(-c2cccc(S(C)(=O)=O)c2)ccc1-n1nc(C(C)(C)O)cc1-c1c(Cl)cccc1Cl [Example 966]
## Output > 6.00

## Input Another molecule to check: CC(C)(O)c1cc(-c2ccc(-c3cccc(S(C)(=O)=O)c3)s2)n(-c2c(F)cccc2Cl)n1 [Example 950]
## Output > 6.00

## Input Same lookup for CC1COC(c2cn(-c3ccc(-c4cccc(S(C)(=O)=O)c4)cc3Cl)c(-c3c(Cl)cccc3Cl)n2)=N1 (stereo not drawn) [Example 938] , please.
## Output > 6.00

## Input Also check CS(=O)(=O)c1cccc(-c2ccc(-n3cc(C4(C#N)CCOCC4)nc3-c3ccccc3C(F)(F)F)cc2)c1 [Example 1031]
## Output > 6.00

## Input And the next one, CS(=O)(=O)c1cccc(-c2ccc(-n3cc(-c4ncco4)nc3-c3ccccc3Cl)c(Cl)c2)c1 [Example 1012] ?
## Output 5.00 to 6.00

## Input Same question for Cc1cc(OCc2cc(C(F)(F)F)nn2-c2ccccc2Cl)ccc1-c1cccc(S(C)(=O)=O)c1 [Example 910] please.
## Output 5.00 to 6.00

## Input Same lookup for O=C(OCc1ccccc1)c1ccc(OCc2cc(C(F)(F)F)nn2-c2ccccc2Cl)cc1 [Example 7] , please.
## Output < 5.00

## Input What do you get for CS(=O)(=O)c1cccc(-c2ccc(-n3cc(C4(O)CCCC4)nc3-c3ccccc3Cl)cc2)c1 [Example 981] ?
## Output 5.00 to 6.00

## Input Subsequent entry: CCOC(=O)c1cc2cc(OCc3cc(C(F)(F)F)nn3-c3ccccc3Cl)ccc2[nH]1 [Example 38]
## Output < 5.00

## Input Continue with Cc1cccc(Cl)c1-n1nc(C(C)(C)O)cc1-c1ccc(-c2cccc(S(C)(=O)=O)c2)s1 [Example 952]
## Output > 6.00

## Input Now consider Cc1cc(-c2cc(C(C)(C)O)nn2-c2c(Cl)cccc2Cl)ccc1-c1cccc(S(C)(=O)=O)c1 [Example 961] .
## Output 5.00 to 6.00

## Input Follow-up entry: CC1(C)COC(c2cn(-c3ccc(-c4cccc(S(C)(=O)=O)c4)cc3Cl)c(-c3c(Cl)cccc3Cl)n2)=N1 [Example 934]
## Output > 6.00

## Input Param item: CS(=O)(=O)c1cccc(NC(=O)c2cc(C(F)(F)F)nn2-c2cc(Cl)ccc2Cl)c1 [Example 99]
## Output < 5.00
